# credit: PubChem BioAssay (NCATS)

# procedure details: qHTS assay for measurement of the activity of small molecule inhibitors on Zika virus induced Caspase-3 activity in human iPSC derived neural progenitor cells (hNPCs) (AID 1224857); note: nearly all actives have a fitted effect of over 65% in size
# experimental parameters: hNPCs ZIKV-induced caspase-3/7, Caspase-Glo luminescence, 6 h; series mostly up to 45.7 µM
Records with an inconclusive call do not appear. Calls of active or inactive are those of the source. Calls come from the whole dose curve; as a rule, active = well fitted inhibition curve with a large enough effect; inconclusive = small, poorly fitted or top-dose-only effect; inactive = no such curve, though single readings can be large or run the other way.
Field 'call' accepts true for active, false for inactive

compound	assigned class
O=c1c2ccccc2nc2n1CCc1c-2[nH]c2ccccc12	true
CCCNC(=O)Nc1ccc(Oc2ncnc3cc(OC)c(OC)cc23)cc1Cl	false
Cc1cnc(Nc2ccc(F)cc2Cl)nc1-c1c[nH]c(C(=O)N[C@H](CO)c2cccc(Cl)c2)c1	false

Call for entry Cn1c(CNc2ccc(C(=N)N)cc2)nc2cc(C(=O)N(CCC(=O)O)c3ccccn3)ccc21 :
false

Follow-up item: COc1cc(OC2CCN(C)CC2)ccc1Nc1ncc2c(n1)n(C1CCCC1)c(=O)n2C
false

Follow-up item: C=CC(=O)Nc1cccc(Oc2nc(Nc3ccc(N4CCN(C)CC4)cc3OC)ncc2Cl)c1
false

Follow-up item: CCS(=O)(=O)c1cccc(-c2cc(C(=O)NC3CCN(C)CC3)c(C)c3[nH]c4ncc(C)cc4c23)c1
false

Follow-up item: O=c1[nH]c(=O)n(C2CCCO2)cc1F (stereo not given)
false
